Taken from patent US11999713B2.

molecular target: UniProt P31153
Sequence (P31153 whole entry, species assumed): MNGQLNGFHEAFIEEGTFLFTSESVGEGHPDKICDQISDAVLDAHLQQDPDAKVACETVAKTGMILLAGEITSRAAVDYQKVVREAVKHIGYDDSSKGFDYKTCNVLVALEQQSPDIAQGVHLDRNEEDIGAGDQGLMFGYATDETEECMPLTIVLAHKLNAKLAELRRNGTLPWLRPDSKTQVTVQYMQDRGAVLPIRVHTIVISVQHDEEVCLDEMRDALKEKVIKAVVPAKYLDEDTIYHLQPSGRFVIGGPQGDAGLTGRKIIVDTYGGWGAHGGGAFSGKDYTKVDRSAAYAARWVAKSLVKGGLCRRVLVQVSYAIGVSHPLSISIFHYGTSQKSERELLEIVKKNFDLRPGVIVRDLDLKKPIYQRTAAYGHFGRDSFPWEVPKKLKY
readout: IC50

Example cases with answers are listed next.
The recorded IC50 for entry C#CCOc1nc(=O)n(-c2cccnc2)c2cc(Cl)ccc12 equals 100 to 500 nM

IC50 for C#CC1(Nc2nc(=O)n(-c3cccnc3)c3cc(C(F)(F)F)ncc23)CC1 is 100 to 500 nM

compound C=CC1(Nc2nc(=O)n(-c3cccnc3C)c3cc(C(F)(F)F)cc(OC)c23)CC1 , IC50 observed: 50 to 100 nM

Looking up C#CC1CCCN(c2nc(=O)n(-c3ccccc3Cl)c3cc(Cl)ccc23)C1 (centres unmarked) , I see its IC50 listed as 100 to 500 nM

Now look at this one.
Entry C#CC(C)Nc1nc(=O)n(-c2cccnc2)c2cc(C(F)(F)F)ncc12 (centres unmarked) , IC50 reported as 100 to 500 nM
